# Study System: T1, monkey NPR1 extracellular domain expressed with a C-terminal myc-myc-hexahistidine (mfNPR1-MMH) (monkey, UniProt P16066 33-473 (human entry))
# T1 construct: also called monomeric monkey NPR1
# T1 chain: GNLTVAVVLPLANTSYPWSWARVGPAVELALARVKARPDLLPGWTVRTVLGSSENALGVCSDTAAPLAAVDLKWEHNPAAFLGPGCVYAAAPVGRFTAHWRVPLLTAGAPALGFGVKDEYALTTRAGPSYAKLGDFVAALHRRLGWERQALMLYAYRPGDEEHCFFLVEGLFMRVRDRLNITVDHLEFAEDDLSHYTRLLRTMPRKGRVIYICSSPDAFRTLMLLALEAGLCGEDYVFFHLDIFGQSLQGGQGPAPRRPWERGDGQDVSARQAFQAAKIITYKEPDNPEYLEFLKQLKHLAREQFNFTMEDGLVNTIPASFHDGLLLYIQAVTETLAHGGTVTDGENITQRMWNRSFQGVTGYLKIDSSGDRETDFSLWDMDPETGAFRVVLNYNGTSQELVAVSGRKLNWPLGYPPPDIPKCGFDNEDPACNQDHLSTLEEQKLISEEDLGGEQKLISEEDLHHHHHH
# Assay Protocol: SPR, mAb captured, 37 C
Property Measured: koff (s⁻¹)
# value in s⁻¹; strip the unit string

INSERT INTO results (binder, property_measured, reading_unit, reported_measurement) VALUES
  ('mAb25497 (antibody, V domains shown) VH: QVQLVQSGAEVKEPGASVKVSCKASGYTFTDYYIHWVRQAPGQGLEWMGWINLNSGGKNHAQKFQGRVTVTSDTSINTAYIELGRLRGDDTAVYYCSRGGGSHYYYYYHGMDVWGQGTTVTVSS VL: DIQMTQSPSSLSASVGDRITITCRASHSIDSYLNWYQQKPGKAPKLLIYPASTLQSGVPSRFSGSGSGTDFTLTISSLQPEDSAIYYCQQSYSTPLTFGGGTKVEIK', 'koff', 's⁻¹', 0.00384);

Turning to the following binder.
Query: # get_value(readout='koff', item= mAb25508 (antibody, V domains shown) VH: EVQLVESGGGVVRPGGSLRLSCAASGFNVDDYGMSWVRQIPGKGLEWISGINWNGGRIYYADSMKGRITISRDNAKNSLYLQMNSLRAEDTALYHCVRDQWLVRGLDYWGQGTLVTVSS VL: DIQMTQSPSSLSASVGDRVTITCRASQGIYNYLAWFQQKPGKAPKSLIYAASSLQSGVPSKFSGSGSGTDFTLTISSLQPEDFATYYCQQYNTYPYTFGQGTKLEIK )
Result: 0.000273

Sourced from patent US20240309103A1
